Species on record: Homo sapiens
assay-summary: Selectivity ratio of EC50 for human cloned CB1 receptor to EC50 for human cloned CB2 receptor
Answer each item with its documented Ratio EC50.

Cc1ccc(C(=O)NC2C(C)CCCC2C)cc1S(=O)(=O)N1CCOCC1 (stereo not given)	12
Cc1ccc(C(=O)N[C@@H]2C(C)(C)[C@H]3CC[C@]2(C)C3)cc1S(=O)(=O)N1CCOCC1	120

List reported Ratio EC50 for each of these compounds:
1. Cc1ccc(C(=O)NC23CC4CC(CC(C4)C2)C3)cc1S(=O)(=O)N1CCOCC1
2. CC1(C)[C@H]2CC[C@](C)(C2)[C@@H]1NC(=O)c1ccc(Br)c(S(=O)(=O)N2CCCCC2)c1
3. Cc1ccc(C(=O)NC(C)C(C)(C)C)cc1S(=O)(=O)N1CCOCC1 (stereo not given)

1. 12
2. 42
3. 19

----------
Recorded below: Ki, system Cannabinoid receptor 1 (Homo sapiens).
Numbers only, in nM.

Cc1ccc(C(=O)NC(C)C23CC4CC(CC(C4)C2)C3)cc1S(=O)(=O)N1CCOCC1 (stereo not given)	77
Cc1ccc(C(=O)NCC23CC4CC(CC(C4)C2)C3)cc1S(=O)(=O)N1CCOCC1	91
Cc1ccc(C(=O)N[C@H]2C(C)(C)[C@H]3CC[C@]2(C)C3)cc1S(=O)(=O)N1CCOCC1	540
O=C(NCc1ccccc1)c1ccc(Br)c(S(=O)(=O)N2CCCCC2)c1	1100
O=C(NCc1cccnc1)c1ccc(Br)c(S(=O)(=O)N2CCCCC2)c1	1800
Cc1ccc(C(=O)NC2C(C)CCCC2C)cc1S(=O)(=O)N1CCOCC1 (stereo not given)	470

List reported Ki for each of these molecules:
1. Cc1ccc(C(=O)NC2C3CC4CC(C3)CC2C4)cc1S(=O)(=O)N1CCOCC1 (stereo not given)
2. Cc1ccc(C(=O)N[C@@H]2C(C)(C)[C@H]3CC[C@]2(C)C3)cc1S(=O)(=O)N1CCOCC1
3. CC(C)(C)CNC(=O)c1ccc(Br)c(S(=O)(=O)N2CCCC2)c1

[33, 130, 2000]

----------
assayed-target: Cannabinoid receptor 2 (Homo sapiens)
pKi: −log10 of the molar value.
Rule: pKi of 7 or more gives T; anything lower gives F.

Consider the worked cases shown below.
Cc1ccc(C(=O)NC(C)C23CC4CC(CC(C4)C2)C3)cc1S(=O)(=O)N1CCOCC1 (stereo not given)	T
CC(C)CNC(=O)c1ccc(Br)c(S(=O)(=O)N2CCCCC2)c1	F
CC1(C)[C@H]2CC[C@](C)(C2)[C@@H]1NC(=O)c1ccc(Br)c(S(=O)(=O)N2CCCCC2)c1	T
CC(C)(C)CNC(=O)c1ccc(Br)c(S(=O)(=O)N2CCCC2)c1	F
CC(C)(C)CNC(=O)c1ccc(Br)c(S(=O)(=O)N2CCOCC2)c1	F
Cc1ccc(C(=O)NC23CC4CC(CC(C4)C2)C3)cc1S(=O)(=O)N1CCOCC1	T

Identify whether the reported pKi of the following molecule is 7 or greater: `Cc1ccc(C(=O)NCC(C)(C)C)cc1S(=O)(=O)N1CCOCC1` F

Identify whether the reported pKi of the following molecule is 7 or greater: `Cc1ccc(C(=O)NCC23CC4CC(CC(C4)C2)C3)cc1S(=O)(=O)N1CCOCC1` T

Identify whether the reported pKi of the following molecule is 7 or greater: `Cc1ccc(C(=O)NC(C(C)(C)C)C(C)(C)C)cc1S(=O)(=O)N1CCOCC1` T

----------
assayed-target: Cannabinoid receptor 2 (Homo sapiens, UniProt P34972)
Sequence (P34972 whole entry): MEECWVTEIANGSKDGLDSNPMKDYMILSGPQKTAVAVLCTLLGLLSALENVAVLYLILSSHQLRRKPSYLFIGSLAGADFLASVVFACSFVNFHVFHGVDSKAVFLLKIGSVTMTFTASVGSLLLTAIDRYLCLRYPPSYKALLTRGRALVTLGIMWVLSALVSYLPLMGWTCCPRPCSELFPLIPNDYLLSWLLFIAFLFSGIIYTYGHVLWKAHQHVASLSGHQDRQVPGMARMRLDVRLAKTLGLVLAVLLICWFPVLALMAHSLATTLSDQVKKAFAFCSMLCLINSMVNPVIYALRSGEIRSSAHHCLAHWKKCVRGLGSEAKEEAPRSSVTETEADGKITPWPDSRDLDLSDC
assay-summary: Agonist activity at human cloned CB2 receptor by [35S]GTP-gamma-S binding assay
readout: log10(EC50) (log10 of the value in µM)
Would you kindly interpret these values as log10 of EC50 expressed in µM?

Would you please look over these solved cases?
Cc1ccc(C(=O)N[C@@H]2C(C)(C)[C@H]3CC[C@]2(C)C3)cc1S(=O)(=O)N1CCOCC1	-2.34
CC1(C)[C@H]2CC[C@](C)(C2)[C@@H]1NC(=O)c1ccc(Br)c(S(=O)(=O)N2CCCC2)c1	-2.37
Cc1ccc(C(=O)NC2C(C)CCCC2C)cc1S(=O)(=O)N1CCOCC1 (centres undefined)	-1.36
Cc1ccc(C(=O)NCC(C)(C)C)cc1S(=O)(=O)N1CCOCC1	0.26

List reported log10(EC50) for each of these compounds:
1. Cc1ccc(C(=O)NC23CC4CC(CC(C4)C2)C3)cc1S(=O)(=O)N1CCOCC1
2. Cc1ccc(C(=O)NC(C)C23CC4CC(CC(C4)C2)C3)cc1S(=O)(=O)N1CCOCC1 (centres undefined)
3. Cc1ccc(C(=O)NC2C3CC4CC(C3)CC2C4)cc1S(=O)(=O)N1CCOCC1 (centres undefined)
4. Cc1ccc(C(=O)NC(C(C)(C)C)C(C)(C)C)cc1S(=O)(=O)N1CCOCC1
5. CC1(C)[C@H]2CC[C@](C)(C2)[C@@H]1NC(=O)c1ccc(Br)c(S(=O)(=O)N2CCCCC2)c1

1: -1.32; 2: -2.03; 3: -1.92; 4: -1.68; 5: -2.18

----------
Organism: Homo sapiens
assay-summary: Selectivity ratio of Ki for human cloned CB1 receptor to Ki for human cloned CB2 receptor
// returns not fulfilled unless Ratio Ki is strictly below 9, in which case fulfilled

Cc1ccc(C(=O)NC2C3CC4CC(C3)CC2C4)cc1S(=O)(=O)N1CCOCC1 (stereo not given)	not fulfilled
CC(C)(C)CNC(=O)c1ccc(Br)c(S(=O)(=O)N2CCOCC2)c1	fulfilled
COc1cccc(CNC(=O)c2ccc(Br)c(S(=O)(=O)N3CCCCC3)c2)c1	fulfilled
CC(C)(C)CNC(=O)c1ccc(Br)c(S(=O)(=O)N2CCCCC2)c1	not fulfilled
CC1(C)[C@H]2CC[C@](C)(C2)[C@@H]1NC(=O)c1ccc(Br)c(S(=O)(=O)N2CCCC2)c1	not fulfilled

A record lists `CC(C)(C)CNC(=O)c1ccc(Br)c(S(=O)(=O)N2CCCC2)c1` . Is its Ratio Ki below 9? fulfilled

A record lists `Cc1ccc(C(=O)NC23CC4CC(CC(C4)C2)C3)cc1S(=O)(=O)N1CCOCC1` . Is its Ratio Ki below 9? not fulfilled

----------
Recorded below: pKi, system Cannabinoid receptor 1 (Homo sapiens).
One number for each entry, as −log10 of the molar value.

CC(C)(C)CNC(=O)c1ccc(Br)c(S(=O)(=O)N2CCOCC2)c1	5.89
CC1(C)[C@H]2CC[C@](C)(C2)[C@@H]1NC(=O)c1ccc(Br)c(S(=O)(=O)N2CCCCC2)c1	7.03
Cc1ccc(C(=O)NC(C(C)(C)C)C(C)(C)C)cc1S(=O)(=O)N1CCOCC1	6.51
Cc1ccc(C(=O)N[C@H]2CC3CC[C@@]2(C)C3(C)C)cc1S(=O)(=O)N1CCOCC1	7.30
Cc1ccc(C(=O)NC23CC4CC(CC(C4)C2)C3)cc1S(=O)(=O)N1CCOCC1	6.59
COc1cccc(CNC(=O)c2ccc(Br)c(S(=O)(=O)N3CCCCC3)c2)c1	5.85
CC1(C)[C@H]2CC[C@](C)(C2)[C@@H]1NC(=O)c1ccc(Br)c(S(=O)(=O)N2CCOCC2)c1	7.05
CC(C)(C)CNC(=O)c1ccc(Br)c(S(=O)(=O)N2CCCCC2)c1	5.89

List reported pKi for each of these compounds:
1. Cc1ccc(C(=O)NC(C)C(C)(C)C)cc1S(=O)(=O)N1CCOCC1 (centres undefined)
2. CC1(C)[C@H]2CC[C@](C)(C2)[C@@H]1NC(=O)c1ccc(Br)c(S(=O)(=O)N2CCCC2)c1

5.89
6.96

----------
Species on record: Homo sapiens
assay-summary: Selectivity ratio of EC50 for human cloned CB1 receptor to EC50 for human cloned CB2 receptor
readout: Ratio EC50
One number for each entry.

Cc1ccc(C(=O)NC(C)C23CC4CC(CC(C4)C2)C3)cc1S(=O)(=O)N1CCOCC1 (centres undefined)	31

List reported Ratio EC50 for each of these compounds:
1. Cc1ccc(C(=O)N[C@H]2CC3CC[C@@]2(C)C3(C)C)cc1S(=O)(=O)N1CCOCC1
2. Cc1ccc(C(=O)N[C@H]2C(C)(C)[C@H]3CC[C@]2(C)C3)cc1S(=O)(=O)N1CCOCC1
3. CC1(C)[C@H]2CC[C@](C)(C2)[C@@H]1NC(=O)c1ccc(Br)c(S(=O)(=O)N2CCOCC2)c1

1: 15; 2: 35; 3: 64

----------
Organism: Homo sapiens
assay-summary: Selectivity ratio of Ki for human cloned CB1 receptor to Ki for human cloned CB2 receptor
Answer each item with its documented Ratio Ki.
One number for each entry.

Would you please look over these solved cases?
Cc1ccc(C(=O)NC(C)C(C)(C)C)cc1S(=O)(=O)N1CCOCC1 (stereo not given)	9
Cc1ccc(C(=O)NC2C(C)CCCC2C)cc1S(=O)(=O)N1CCOCC1 (stereo not given)	5
Cc1ccc(C(=O)N[C@H]2C(C)(C)[C@H]3CC[C@]2(C)C3)cc1S(=O)(=O)N1CCOCC1	11

Given the molecule `Cc1ccc(C(=O)N[C@@H]2C(C)(C)[C@H]3CC[C@]2(C)C3)cc1S(=O)(=O)N1CCOCC1` , what is its reported Ratio Ki? 31

Just for reference, ChEMBL document CHEMBL1145632 is where these values come from.
